Target: T1, mouse FGFR2b (mouse, UniProt P21803)
T1 chain: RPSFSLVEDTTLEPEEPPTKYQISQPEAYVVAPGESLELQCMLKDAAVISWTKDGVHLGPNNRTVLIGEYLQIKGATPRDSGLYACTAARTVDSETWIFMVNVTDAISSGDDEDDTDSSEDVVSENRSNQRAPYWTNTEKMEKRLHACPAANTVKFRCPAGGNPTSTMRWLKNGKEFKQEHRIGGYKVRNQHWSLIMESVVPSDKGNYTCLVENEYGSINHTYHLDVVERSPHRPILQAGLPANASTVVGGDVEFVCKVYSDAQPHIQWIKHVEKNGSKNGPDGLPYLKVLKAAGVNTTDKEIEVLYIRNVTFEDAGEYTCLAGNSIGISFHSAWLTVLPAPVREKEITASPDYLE
Test: BLI
The entries below come with measured Kd values attached.
Use nM as the unit, but write only the number.

[Q] So what's the measured Kd for this one? 3E2 (antibody, V domains shown) VH: EIQLQQSGAELVKPGASVKMSCKASGYTFSFYNMHWVKRTPGQGLEWIGLIYPDNGDTSYNQKFKGKATLTADTSSSTAYMQLSSLTSEDSAVYYCARGGLDYWGQGTSLTVSS VL: NIVMTQSQKFMSTSVGDRVSVTCKASQNVGTNVAWYQQKPGQSPKALIYSASYRYTGVPDRFTGSGSGTDFTFTISSVQAEDLAVYYCQQHYSTPYTFGGGTKLEIK
[A] 36.5

[Q] So what's the measured Kd for this one? 1D7 (antibody, V domains shown) VH: QIQLQQSGAELVKPGASVKMSCKASGYTFRYYNMHWVKRTPGQGLEWIGLIYPDNGDTSYNQKFKGKATLTADTSSSTAYMQLSSLTSEDSAVYYCARGGLDYWGQGTSLTVSS VL: DIQMTQSPSSMSASLGDRITITCQATQDIVKNLNWYQQKPGKPPSFLIYYATELAEGVPSRFSGSGSGSDYSLTISNLESEDFADYYCLQFYEFPLTFGAGTKLELK
[A] 27.6
